Data origin, for the record: patent US6727246B2

endpoint-name: melting point

Examples with answers:
- Cc1cccc2c1c(S(=O)(=O)c1ccccc1)cn2CCN(C)C [Example 12]: 220 to 221 °C
- O=S(=O)(Cc1ccccc1)c1cn(CCN2CCCCC2)c2ccccc12 [Example 32]: 223 to 225 °C
- NCCn1nc(S(=O)(=O)c2ccccc2)c2ccccc21 [Example 36]: 208 to 209 °C
- Cn1ccnc1S(=O)(=O)c1cn(CCN)c2ccccc12 [Example 46]: 158 to 160 °C
- NCCn1cc(S(=O)(=O)c2ccccc2)c2ccccc21 [Example 40]: 220 to 221 °C
- COc1cccc2c1c(S(=O)(=O)c1ccccc1)cn2CCN(C)C [Example 53]: 238 to 240 °C
- CN(C)CCn1cc(S(=O)(=O)c2ccccc2)c2c(F)cccc21 [Example 9]: 201 to 203 °C
- CCc1cccc2c(S(=O)(=O)c3ccccc3)cn(CCN(C)C)c12 [Example 13]: 213 to 216 °C

Looking up CN(C)CCn1cc(S(=O)(=O)c2cccc3ccccc23)c2ccccc21 [Example 26] , I see its melting point listed as 239 to 241 °C

Looking up Cc1c(S(=O)(=O)c2ccccc2)c2ccccc2n1CCN(C)C [Example 24] , I see its melting point listed as 258 to 260 °C

====

# maps each entry to its melting point

- CN(C)CCn1cc(S(=O)(=O)c2ccccc2)c2cc(F)ccc21: 103 to 104 °C
- COc1ccc2c(c1)c(S(=O)(=O)c1ccccc1)cn2CCN: 198 to 201 °C
- CN(C)CCn1cc(S(=O)(=O)c2ccccc2)c2c(Cl)cccc21: 209 to 211 °C
- CN(C)CCn1cc(S(=O)(=O)c2ccccc2)c2cccc(Cl)c21: 240 to 242 °C

// next item, melting point requested
Looking up CN(C)CCn1cc(S(=O)(=O)Cc2ccccc2)c2ccccc21 , I see its melting point listed as 219 to 220 °C

====

biological target: human cloned 5-HT6 receptors (Homo sapiens); construct: expressed in transfected cells; host or cells: Hela cells (membrane preparation); test: 5-HT6 binding affinity, [3H]-LSD displacement on membranes of Hela cells expressing the cloned receptor
Sequence (P50406 whole entry): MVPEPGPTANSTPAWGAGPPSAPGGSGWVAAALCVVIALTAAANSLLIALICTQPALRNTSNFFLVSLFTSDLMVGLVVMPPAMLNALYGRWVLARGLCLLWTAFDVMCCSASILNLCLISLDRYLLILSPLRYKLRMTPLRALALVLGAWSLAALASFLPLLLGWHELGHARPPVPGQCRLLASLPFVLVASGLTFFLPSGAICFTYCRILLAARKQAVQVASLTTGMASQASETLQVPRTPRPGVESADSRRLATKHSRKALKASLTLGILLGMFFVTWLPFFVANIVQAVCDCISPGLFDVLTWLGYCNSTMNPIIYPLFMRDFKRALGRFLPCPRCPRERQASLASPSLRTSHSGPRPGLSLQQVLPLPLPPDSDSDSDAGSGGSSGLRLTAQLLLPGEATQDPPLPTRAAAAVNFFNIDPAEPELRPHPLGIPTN
# maps each entry to its Ki
Kindly answer with a numeric value in nM, unit omitted.

Examples with answers:
• COc1ccc2c(S(=O)(=O)c3ccccc3)cn(CCN(C)C)c2c1 = 23
• CCc1cccc2c(S(=O)(=O)c3ccccc3)cn(CCN(C)C)c12 = 65
• CN(C)CCn1cc(S(=O)(=O)c2ccccc2)c2ccc(Cl)cc21 = 42
• COc1cccc2c(S(=O)(=O)c3ccccc3)cn(CCN(C)C)c12 = 25
• Cc1c(S(=O)(=O)c2ccccc2)c2ccccc2n1CCN(C)C = 18

Looking up CN(C)CCn1cc(S(=O)(=O)c2ccccc2)c2cc(F)ccc21 , I see its Ki listed as 44

Looking up CN(C)CCn1cc(S(=O)(=O)c2ccccc2)c2ccccc21 , I see its Ki listed as 20

Looking up CN(C)CCn1cc(S(=O)(=O)c2ccccc2)c2c(F)cccc21 , I see its Ki listed as 98

Looking up COc1ccc2c(c1)c(S(=O)(=O)c1ccccc1)cn2CCN(C)C , I see its Ki listed as 23

Looking up Cc1ccc(S(=O)(=O)c2cn(CCN(C)C)c3ccccc23)cc1 , I see its Ki listed as 57

Looking up CN(C)CCn1cc(S(=O)(=O)c2ccccc2)c2ccc(F)cc21 , I see its Ki listed as 46
